system-under-test: human GLP-1 receptor (human, UniProt P43220 24-463)
test-protocol: cell-based or functional assay
reported-endpoint: GLP-1 activity (EC50, pM)
A number alone suffices; assume pM.

[Q] Could you share which GLP-1 activity (EC50, pM) value was measured for MLC090 (ligand, Moiety C (HOOC-(CH2)20-CO-gGlu-2XADO-EDA-CO-CH2) on 39C of Linker (70C of fusion polypeptide)) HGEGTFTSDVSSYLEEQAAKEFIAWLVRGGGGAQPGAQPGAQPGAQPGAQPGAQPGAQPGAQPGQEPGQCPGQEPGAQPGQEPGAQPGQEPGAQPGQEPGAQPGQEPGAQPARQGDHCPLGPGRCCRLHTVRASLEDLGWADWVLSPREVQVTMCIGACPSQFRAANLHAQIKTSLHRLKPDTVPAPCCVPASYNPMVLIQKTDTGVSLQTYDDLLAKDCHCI ?
[A] 1.5

[Q] Could you share which GLP-1 activity (EC50, pM) value was measured for MLC017 (ligand, Moiety A (HOOC-(CH2)16-CO-gGlu-2XADO) on 55K of Linker (86K of fusion polypeptide)) HGEGTFTSDVSSYLEEQAAREFIAWLVRGGGGQEPGAQPGQEPGAQPGQEPGAQPGQEPGAQPGQEPGAQPGQEPGAQPGAQPGAKPGAQPGAQPGAQPGAQPGAQPGAQPARQGDHCPLGPGRCCRLHTVRASLEDLGWADWVLSPREVQVTMCIGACPSQFRAANLHAQIKTSLHRLRPDTVPAPCCVPASYNPMVLIQRTDTGVSLQTYDDLLARDCHCI ?
[A] 2.8

[Q] Could you share which GLP-1 activity (EC50, pM) value was measured for MLC018 (ligand, Moiety A (HOOC-(CH2)16-CO-gGlu-2XADO) on 52K of Linker (83K of fusion polypeptide)) HGEGTFTSDVSSYLEEQAAREFIAWLVRGGGGQEPGAQPGQEPGAQPGQEPGAQPGQEPGAQPGQEPGAQPGQEPGAQPGQEKGAQPGQEPGAQPGQEPGAQPGQEPGAQPARQGDHCPLGPGRCCRLHTVRASLEDLGWADWVLSPREVQVTMCIGACPSQFRAANLHAQIKTSLHRLRPDTVPAPCCVPASYNPMVLIQRTDTGVSLQTYDDLLARDCHCI ?
[A] 3.3

[Q] Could you share which GLP-1 activity (EC50, pM) value was measured for MLC023 (ligand) HGEGTFTSDVSSYLEEQAAKEFIAWLVRGGGGQEPGQEPGQEPARQGDHCPLGPGRCCRLHTVRASLEDLGWADWVLSPREVQVTMCIGACPSQFRAANLHAQIKTSLHRLKPDTVPAPCCVPASYNPMVLIQKTDTGVSLQTYDDLLAKDCHCI ?
[A] 4

[Q] Could you share which GLP-1 activity (EC50, pM) value was measured for MLC107 (ligand, Moiety B (HOOC-(CH2)16-CO-gGlu-2XADO-EDA-CO-CH2) on 25C of Linker (56C of fusion polypeptide)) HGEGTFTSDVSSYLEEQAAKEFIAWLVRGGGGAQPGAQPGAQPGAQPGAQPGAQPCQAPGAQPGQEPGAQPGQEPGAQPGQEPGAQPGQEPGAQPGQEPGAQPGQEPGAQPARQGDHCPLGPGRCCRLHTVRASLEDLGWADWVLSPREVQVTMCIGACPSQFRAANLHAQIKTSLHRLKPDTVPAPCCVPASYNPMVLIQKTDTGVSLQTYDDLLAKDCHCI ?
[A] 1.1

// provenance: patent US20220017589A1
